This listing pairs compounds with measured logP at 1 h.
- ASSAY_NOTES: Octanol-water partition coefficient, logP of the compound after 1 hr by UV-vis spectrophotometric analysis
- Format: physicochemical
Answer with the value's number alone.

The following compounds have reported results that may help.
{"SMILES_REPRESENTATION": "CCOC(=O)[C@H](CCCCN)NCc1c2c(O)c3c(O)c(C)c4c(c3c1O)C(=O)[C@@](C)(O/C=C/[C@H](OC)[C@@H](C)[C@@H](OC(C)=O)[C@H](C)[C@H](O)[C@H](C)[C@@H](O)[C@@H](C)/C=C/C=C(/C)C(=O)N2)O4", "logP at 1 h": 2.2}
{"SMILES_REPRESENTATION": "CCOC(=O)[C@H](Cc1c[nH]c2ccccc12)NCc1c2c(O)c3c(O)c(C)c4c(c3c1O)C(=O)[C@@](C)(O/C=C/[C@H](OC)[C@@H](C)[C@@H](OC(C)=O)[C@H](C)[C@H](O)[C@H](C)[C@@H](O)[C@@H](C)/C=C/C=C(/C)C(=O)N2)O4", "logP at 1 h": 2.48}
{"SMILES_REPRESENTATION": "CO[C@H]1/C=C/O[C@@]2(C)Oc3c(C)c(O)c4c(O)c(c(CN[C@@H](Cc5ccccc5)C(=O)OCc5ccccc5)c(O)c4c3C2=O)NC(=O)/C(C)=C\\C=C\\[C@H](C)[C@H](O)[C@@H](C)[C@@H](O)[C@@H](C)[C@H](OC(C)=O)[C@@H]1C", "logP at 1 h": 2.75}

Given item COC(=O)[C@H](Cc1ccccc1)NCc1c2c(O)c3c(O)c(C)c4c(c3c1O)C(=O)[C@@](C)(O/C=C/[C@H](OC)[C@@H](C)[C@@H](OC(C)=O)[C@H](C)[C@H](O)[C@H](C)[C@@H](O)[C@@H](C)/C=C/C=C(/C)C(=O)N2)O4 , the value recorded as its logP at 1 h is 2.47

---

- System: Staphylococcus aureus
- ASSAY_NOTES: Antibacterial activity against methicillin resistant Staphylococcus aureus isolate 3 after 18 hrs by microdilution method
- Assay type: functional
- CONDITION_SUMMARY: isolate 3, 18 h
The following compounds are shown together with reported MIC values.

{"SMILES_REPRESENTATION": "CCOC(=O)[C@H](Cc1c[nH]c2ccccc12)NCc1c2c(O)c3c(O)c(C)c4c(c3c1O)C(=O)[C@@](C)(O/C=C/[C@H](OC)[C@@H](C)[C@@H](OC(C)=O)[C@H](C)[C@H](O)[C@H](C)[C@@H](O)[C@@H](C)/C=C/C=C(/C)C(=O)N2)O4", "TARGET": "Staphylococcus aureus", "MIC": "0.5 µg/mL"}
{"SMILES_REPRESENTATION": "COC(=O)[C@H](Cc1ccc(O)cc1)NCc1c2c(O)c3c(O)c(C)c4c(c3c1O)C(=O)[C@@](C)(O/C=C/[C@H](OC)[C@@H](C)[C@@H](OC(C)=O)[C@H](C)[C@H](O)[C@H](C)[C@@H](O)[C@@H](C)/C=C/C=C(/C)C(=O)N2)O4", "TARGET": "Staphylococcus aureus", "MIC": "1 µg/mL"}
{"SMILES_REPRESENTATION": "CO[C@H]1/C=C/O[C@@]2(C)Oc3c(C)c(O)c4c(O)c(c(/C=N/N5CCN(C)CC5)c(O)c4c3C2=O)NC(=O)/C(C)=C\\C=C\\[C@H](C)[C@H](O)[C@@H](C)[C@@H](O)[C@@H](C)[C@H](OC(C)=O)[C@@H]1C", "TARGET": "Staphylococcus aureus", "MIC": "0.016 µg/mL"}
{"SMILES_REPRESENTATION": "CCOC(=O)[C@H](CCCNC(=N)N)NCc1c2c(O)c3c(O)c(C)c4c(c3c1O)C(=O)[C@@](C)(O/C=C/[C@H](OC)[C@@H](C)[C@@H](OC(C)=O)[C@H](C)[C@H](O)[C@H](C)[C@@H](O)[C@@H](C)/C=C/C=C(/C)C(=O)N2)O4", "TARGET": "Staphylococcus aureus", "MIC": "2 µg/mL"}
{"SMILES_REPRESENTATION": "CCOC(=O)[C@H](Cc1ccccc1)NCc1c2c(O)c3c(O)c(C)c4c(c3c1O)C(=O)[C@@](C)(O/C=C/[C@H](OC)[C@@H](C)[C@@H](OC(C)=O)[C@H](C)[C@H](O)[C@H](C)[C@@H](O)[C@@H](C)/C=C/C=C(/C)C(=O)N2)O4", "TARGET": "Staphylococcus aureus", "MIC": "0.125 µg/mL"}

// assay Staphylococcus aureus, entry CCOC(=O)[C@H](CCCCN)NCc1c2c(O)c3c(O)c(C)c4c(c3c1O)C(=O)[C@@](C)(O/C=C/[C@H](OC)[C@@H](C)[C@@H](OC(C)=O)[C@H](C)[C@H](O)[C@H](C)[C@@H](O)[C@@H](C)/C=C/C=C(/C)C(=O)N2)O4 , MIC value = > 2 µg/mL
